molecular target: hQC (Homo sapiens); assay: Fluorometric assay of glutaminyl cyclase (QC) inhibition, H-Gln-βNA or H-Gln-AMC substrate; type: biochemical; conditions: read-out: IC50
Rule: IC50 below 7 µM gives fulfilled. Equal to or above 7 µM gives not fulfilled.

In plain terms, does O=C1N/C(=N/CCc2cccs2)C(C2CCC=CO2)N1CCCn1ccnc1 (stereo not shown) come in under 7 µM for IC50? not fulfilled

Say whether its IC50 is strictly beneath 7 µM. Entry: O=C1N/C(=N\C2CCCc3ccccc32)C(c2c(F)ccc(Cl)c2F)N1c1ccc2nc[nH]c2c1 (stereo not shown) fulfilled

Is IC50 of CC1=CC(C)C(C2/C(=N/c3ccc4c(c3)OCCO4)NC(=S)N2c2ccc3[nH]cnc3c2)CC1 (stereo not shown) strictly below 7 µM? not fulfilled

For this compound, is IC50 lower than 7 µM? O=C1N/C(=N\Cc2ccc(Cl)cc2)C(c2ccccc2F)N1CCCn1ccnc1 (stereo not shown) fulfilled

Lab note: IC50 threshold 7 µM. Does this compound come in strictly under it? O=C1N/C(=N/Cc2ccc(Cl)cc2)C(c2ccc(Cl)c(F)c2)N1CCCn1ccnc1 (stereo not shown) not fulfilled

# TODO verify IC50 < 7 µM strictly for this compound: O=C(C/N=C1\NC(=O)N(c2ccc3[nH]cnc3c2)C1c1ccnc2ccccc12)N1CCC(O)CC1 (stereo not shown) fulfilled

is_below(IC50, 7 µM) for O=C1N/C(=N\CCc2cccs2)C(c2ccccc2Cl)N1CCCn1ccnc1 (stereo not shown) ? fulfilled

###

molecular target: hQC (Homo sapiens, UniProt Q16769); test: Fluorometric assay of glutaminyl cyclase (QC) inhibition, H-Gln-βNA or H-Gln-AMC substrate; assay type: biochemical; conditions: compound from preparative synthesis, purified by chromatography; fluorescent assay; read-out: IC50 hQC
Sequence (Q16769 29-361): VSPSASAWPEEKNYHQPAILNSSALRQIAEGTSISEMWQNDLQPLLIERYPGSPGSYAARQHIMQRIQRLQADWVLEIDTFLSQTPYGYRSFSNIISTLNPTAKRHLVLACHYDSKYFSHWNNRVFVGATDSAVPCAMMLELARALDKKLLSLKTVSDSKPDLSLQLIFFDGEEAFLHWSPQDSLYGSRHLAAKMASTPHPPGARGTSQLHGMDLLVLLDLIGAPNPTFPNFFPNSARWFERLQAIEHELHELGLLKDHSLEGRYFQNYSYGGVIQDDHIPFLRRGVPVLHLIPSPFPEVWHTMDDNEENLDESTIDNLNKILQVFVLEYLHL
property.name: IC50 (nM)
Report only the number, with the unit nM understood.

Lab note: need IC50 with hQC (Homo sapiens, UniProt Q16769) for entry O=C1N/C(=N\C2CCCCC2)C(c2c(F)ccc(Cl)c2F)N1c1ccc2[nH]cnc2c1 (stereo not drawn) , please look it up. 98.4

What measured IC50 is associated with O=C1N/C(=N/Cc2ccccc2)C(c2ccc(Cl)cc2)N1c1ccc2[nH]cnc2c1 (stereo not drawn) on hQC (Homo sapiens, UniProt Q16769)? 19.5

Observed IC50 on hQC (Homo sapiens, UniProt Q16769) for O=C1N/C(=N\C2CCCCC2)C(c2ccc(Br)cc2)N1c1ccc2nc[nH]c2c1 (stereo not drawn) , please. 23.5

###

target: hQC (Homo sapiens); test: Fluorometric assay of glutaminyl cyclase (QC) inhibition, H-Gln-βNA or H-Gln-AMC substrate; format: biochemical; conditions: read-out: IC50
Record form. Attribute: IC50. Fill in for each entry.
A complete answer gives the number and then names the unit.

Recorded IC50 for C/N=C1/NC(=O)N(CCCn2ccnc2)C1c1ccccc1 (centres unmarked) , please? 7.6 µM

For O=C1N/C(=N\C(c2ccccc2)c2ccccc2)C(c2ccc(O)cc2)N1CCCn1ccnc1 (centres unmarked) , what is its reported IC50? 9.4 µM

I'd like to know its IC50. The compound in question is Cc1ccc(C2/C(=N\Cc3ccc4[nH]ccc4c3)NC(=O)N2c2ccc3[nH]cnc3c2)cc1 (centres unmarked) 0.004 µM

Reported IC50, compound Cc1ccc(C2/C(=N/C3CCCCC3O)NC(=O)N2c2ccc3nc[nH]c3c2)c(C)c1 (centres unmarked) : ____ 6.7 µM

Name the recorded IC50 for Cc1ccc(C2/C(=N/c3c(Cl)cccc3Cl)NC(=S)N2c2ccc3nc[nH]c3c2)cc1 (centres unmarked) . 7.6 µM

# query: IC50 of entry O=C1N/C(=N\C2CCCCC2O)C(c2ccc3[nH]ccc3c2)N1c1ccc2[nH]cnc2c1 (centres unmarked) 0.4 µM

Tell me the measured IC50 of S=C1N/C(=N/Cc2ccccc2)C(c2ccc(Br)cc2)N1c1ccc2[nH]cnc2c1 (centres unmarked) , please. 5.8 µM

Need IC50 of O=C1N/C(=N\C2CCCCC2O)C(c2coc3ccccc3c2=O)N1c1ccc2[nH]cnc2c1 (centres unmarked) , thanks. 9.4 µM

Which IC50 value is on record for Cc1ccc(C2/C(=N\c3cccc(C#N)c3)NC(=S)N2c2ccc3[nH]cnc3c2)c(C)c1 (centres unmarked) ? 8.5 µM

Which IC50 is listed for O=C1N/C(=N/CCc2c[nH]c3ccccc23)C(c2ccc(Cl)c(F)c2)N1CCCn1ccnc1 (centres unmarked) ? 3.1 µM

Item under review: CCCCC1/C(=N\CCc2c[nH]c3ccccc23)NC(=O)N1CCCn1ccnc1 (centres unmarked) . Reported IC50? 4.9 µM
